- System: PPARg:RXRa 30nM:10nM, anti-RXR (NR concentration 30 nM, RXRa partner concentration 10 nM)
- Experiment summary: PBM binding z-score (relative to random genomic background probes); higher = stronger binding; sequences stand for … in GC…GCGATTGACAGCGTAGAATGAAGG
Each item that follows carries a reported PBM binding z-score.
Number, no unit, nothing else.

Reference set, count: 5
# Residue sequence, PBM binding z-score
rows = [
    ("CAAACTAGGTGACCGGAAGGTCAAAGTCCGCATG", 3.01),
    ("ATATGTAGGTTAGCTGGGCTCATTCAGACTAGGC", 0.752),
    ("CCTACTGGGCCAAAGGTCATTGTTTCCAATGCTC", 10.6),
    ("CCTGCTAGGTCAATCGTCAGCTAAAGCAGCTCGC", -0.19),
    ("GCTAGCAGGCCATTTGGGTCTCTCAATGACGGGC", -1.01),
]

query: Please tell me: PBM binding z-score of TGATTGAGGTTATAAGATCAGGGAACGTTGCAAA , system PPARg:RXRa 30nM:10nM, anti-RXR (NR concentration 30 nM, RXRa partner concentration 10 nM)?
result: 0.689

query: Please tell me: PBM binding z-score of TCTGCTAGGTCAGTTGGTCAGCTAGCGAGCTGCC , system PPARg:RXRa 30nM:10nM, anti-RXR (NR concentration 30 nM, RXRa partner concentration 10 nM)?
result: 1.21

query: Please tell me: PBM binding z-score of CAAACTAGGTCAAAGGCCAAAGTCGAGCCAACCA , system PPARg:RXRa 30nM:10nM, anti-RXR (NR concentration 30 nM, RXRa partner concentration 10 nM)?
result: 9.75

query: Please tell me: PBM binding z-score of CTTGAAAGGTCGTGCTCAGGTGAGTATACCAAAC , system PPARg:RXRa 30nM:10nM, anti-RXR (NR concentration 30 nM, RXRa partner concentration 10 nM)?
result: 0.962

query: Please tell me: PBM binding z-score of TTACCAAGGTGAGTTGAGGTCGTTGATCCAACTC , system PPARg:RXRa 30nM:10nM, anti-RXR (NR concentration 30 nM, RXRa partner concentration 10 nM)?
result: 0.292

query: Please tell me: PBM binding z-score of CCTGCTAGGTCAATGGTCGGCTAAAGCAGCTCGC , system PPARg:RXRa 30nM:10nM, anti-RXR (NR concentration 30 nM, RXRa partner concentration 10 nM)?
result: 1.27

query: Please tell me: PBM binding z-score of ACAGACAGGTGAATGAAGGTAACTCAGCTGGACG , system PPARg:RXRa 30nM:10nM, anti-RXR (NR concentration 30 nM, RXRa partner concentration 10 nM)?
result: 0.0803

query: Please tell me: PBM binding z-score of ACTCGGAGGACAAAGGTCATAGCTACGCCAGTGA , system PPARg:RXRa 30nM:10nM, anti-RXR (NR concentration 30 nM, RXRa partner concentration 10 nM)?
result: 6.46

query: Please tell me: PBM binding z-score of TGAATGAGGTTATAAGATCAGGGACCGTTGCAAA , system PPARg:RXRa 30nM:10nM, anti-RXR (NR concentration 30 nM, RXRa partner concentration 10 nM)?
result: 0.865

query: Please tell me: PBM binding z-score of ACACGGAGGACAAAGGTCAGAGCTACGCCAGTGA , system PPARg:RXRa 30nM:10nM, anti-RXR (NR concentration 30 nM, RXRa partner concentration 10 nM)?
result: 5.39

query: Please tell me: PBM binding z-score of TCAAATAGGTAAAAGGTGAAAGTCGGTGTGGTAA , system PPARg:RXRa 30nM:10nM, anti-RXR (NR concentration 30 nM, RXRa partner concentration 10 nM)?
result: 8.45

* * *

- Test system: VDR:RXRa (NR concentration 270 nM, RXRa partner concentration 90 nM)
- Experiment summary: PBM binding z-score (relative to random genomic background probes); higher = stronger binding; sequences stand for … in GC…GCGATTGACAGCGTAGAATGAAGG
Please note: criterion met applies when PBM binding z-score is 2 or greater, and criterion not met applies otherwise.

# Residue sequence, Experimental target, Assigned category
data = [
    ("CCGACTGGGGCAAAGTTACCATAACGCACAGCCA", "VDR:RXRa (NR concentration 270 nM, RXRa partner concentration 90 nM)", "criterion not met"),
]

query: Does the reported PBM binding z-score for TGAATGAGGTTAAAGATCAGGTAACGTGGCGTCG fall at or above the 2 mark?
result: criterion not met

query: Does the reported PBM binding z-score for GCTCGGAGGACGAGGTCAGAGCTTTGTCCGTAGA fall at or above the 2 mark?
result: criterion met

* * *

- Test system: LXRa:RXRa (NR concentration 270 nM, RXRa partner concentration 90 nM)
- Experiment summary: PBM binding z-score (relative to random genomic background probes); higher = stronger binding; sequences stand for … in GC…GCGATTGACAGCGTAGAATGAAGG
Recorded endpoint: PBM binding z-score
Number, no unit, nothing else.

Reference set, count: 5
# Residue sequence, PBM binding z-score
records = [
    ("CCTACTGGGCCAAAAAGGTCATTGCTGCCGATAA", 4.36),
    ("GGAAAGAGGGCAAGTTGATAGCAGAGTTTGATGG", 1.58),
    ("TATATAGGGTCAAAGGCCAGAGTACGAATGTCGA", 6.1),
    ("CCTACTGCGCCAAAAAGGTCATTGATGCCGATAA", 4.8),
    ("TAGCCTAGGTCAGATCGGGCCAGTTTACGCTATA", 0.989),
]

Now look at this entry.
query: Using the record for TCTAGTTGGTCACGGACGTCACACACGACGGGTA , report its PBM binding z-score.
result: 0.203

* * *

- Tested on: PPARg DBDmut IVT, anti-PPARg (DBD mutation: PPARg1 K132A/R137A, NR concentration 270 nM)
- Experiment summary: PBM binding z-score (relative to random genomic background probes); higher = stronger binding; sequences stand for … in GC…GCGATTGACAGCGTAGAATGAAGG
Recorded endpoint: PBM binding z-score
Number, no unit, nothing else.

Reference set, count: 4
# Residue sequence, Experimental target, Recorded endpoint, Test value
rows = [
    ("CCAGACAGGTGAGAAGGGAACTCAGCCTCGATTA", "PPARg DBDmut IVT, anti-PPARg (DBD mutation: PPARg1 K132A/R137A, NR concentration 270 nM)", "PBM binding z-score", -0.943),
    ("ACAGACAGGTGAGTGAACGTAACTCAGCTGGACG", "PPARg DBDmut IVT, anti-PPARg (DBD mutation: PPARg1 K132A/R137A, NR concentration 270 nM)", "PBM binding z-score", -1.39),
    ("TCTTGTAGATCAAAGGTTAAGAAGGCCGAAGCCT", "PPARg DBDmut IVT, anti-PPARg (DBD mutation: PPARg1 K132A/R137A, NR concentration 270 nM)", "PBM binding z-score", 0.582),
    ("TAGCCTAGGTCAGATCGCGCCAGTATACGCTATA", "PPARg DBDmut IVT, anti-PPARg (DBD mutation: PPARg1 K132A/R137A, NR concentration 270 nM)", "PBM binding z-score", 0.133),
]

query: Please tell me: PBM binding z-score of CAAACTAGGTCATAGAGGTCAAAGTCCGTGCGTA , system PPARg DBDmut IVT, anti-PPARg (DBD mutation: PPARg1 K132A/R137A, NR concentration 270 nM)?
result: 1.45

query: Please tell me: PBM binding z-score of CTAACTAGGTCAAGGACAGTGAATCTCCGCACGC , system PPARg DBDmut IVT, anti-PPARg (DBD mutation: PPARg1 K132A/R137A, NR concentration 270 nM)?
result: 1.42

query: Please tell me: PBM binding z-score of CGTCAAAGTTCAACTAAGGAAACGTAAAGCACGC , system PPARg DBDmut IVT, anti-PPARg (DBD mutation: PPARg1 K132A/R137A, NR concentration 270 nM)?
result: 0.369

query: Please tell me: PBM binding z-score of CATACAGGGTCAGCTAGGCCAGAGTTGGGACGGC , system PPARg DBDmut IVT, anti-PPARg (DBD mutation: PPARg1 K132A/R137A, NR concentration 270 nM)?
result: 0.195

query: Please tell me: PBM binding z-score of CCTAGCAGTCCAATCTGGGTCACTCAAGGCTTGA , system PPARg DBDmut IVT, anti-PPARg (DBD mutation: PPARg1 K132A/R137A, NR concentration 270 nM)?
result: -0.84

query: Please tell me: PBM binding z-score of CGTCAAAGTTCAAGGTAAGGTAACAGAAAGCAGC , system PPARg DBDmut IVT, anti-PPARg (DBD mutation: PPARg1 K132A/R137A, NR concentration 270 nM)?
result: 0.255

query: Please tell me: PBM binding z-score of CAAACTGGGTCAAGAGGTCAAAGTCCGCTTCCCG , system PPARg DBDmut IVT, anti-PPARg (DBD mutation: PPARg1 K132A/R137A, NR concentration 270 nM)?
result: 1.72

query: Please tell me: PBM binding z-score of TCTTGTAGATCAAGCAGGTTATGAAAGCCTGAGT , system PPARg DBDmut IVT, anti-PPARg (DBD mutation: PPARg1 K132A/R137A, NR concentration 270 nM)?
result: 0.263

query: Please tell me: PBM binding z-score of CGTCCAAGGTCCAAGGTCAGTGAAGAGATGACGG , system PPARg DBDmut IVT, anti-PPARg (DBD mutation: PPARg1 K132A/R137A, NR concentration 270 nM)?
result: -0.592

query: Please tell me: PBM binding z-score of AGAATGAGGTTCTTAAGATCAGGGAATTGCGGTC , system PPARg DBDmut IVT, anti-PPARg (DBD mutation: PPARg1 K132A/R137A, NR concentration 270 nM)?
result: -0.225

query: Please tell me: PBM binding z-score of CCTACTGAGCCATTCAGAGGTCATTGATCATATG , system PPARg DBDmut IVT, anti-PPARg (DBD mutation: PPARg1 K132A/R137A, NR concentration 270 nM)?
result: 0.233

query: Please tell me: PBM binding z-score of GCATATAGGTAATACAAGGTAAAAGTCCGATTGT , system PPARg DBDmut IVT, anti-PPARg (DBD mutation: PPARg1 K132A/R137A, NR concentration 270 nM)?
result: 1.1

query: Please tell me: PBM binding z-score of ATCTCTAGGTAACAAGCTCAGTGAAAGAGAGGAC , system PPARg DBDmut IVT, anti-PPARg (DBD mutation: PPARg1 K132A/R137A, NR concentration 270 nM)?
result: 1.26

query: Please tell me: PBM binding z-score of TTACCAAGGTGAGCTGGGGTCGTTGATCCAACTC , system PPARg DBDmut IVT, anti-PPARg (DBD mutation: PPARg1 K132A/R137A, NR concentration 270 nM)?
result: -0.348

query: Please tell me: PBM binding z-score of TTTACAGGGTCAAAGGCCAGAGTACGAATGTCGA , system PPARg DBDmut IVT, anti-PPARg (DBD mutation: PPARg1 K132A/R137A, NR concentration 270 nM)?
result: 1.36

query: Please tell me: PBM binding z-score of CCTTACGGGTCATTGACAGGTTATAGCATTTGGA , system PPARg DBDmut IVT, anti-PPARg (DBD mutation: PPARg1 K132A/R137A, NR concentration 270 nM)?
result: 0.325
